molecular target: T1, serum purified human Complement Factor D (human, UniProt P00746 26-253); experiment: SPR Biacore, antibody on protein A chip, single cycle kinetics, 37 C
T1 construct: Serum purified protein flowed over the captured antibodies; also called CFD; human CFD
T1 sequence (P00746 26-253): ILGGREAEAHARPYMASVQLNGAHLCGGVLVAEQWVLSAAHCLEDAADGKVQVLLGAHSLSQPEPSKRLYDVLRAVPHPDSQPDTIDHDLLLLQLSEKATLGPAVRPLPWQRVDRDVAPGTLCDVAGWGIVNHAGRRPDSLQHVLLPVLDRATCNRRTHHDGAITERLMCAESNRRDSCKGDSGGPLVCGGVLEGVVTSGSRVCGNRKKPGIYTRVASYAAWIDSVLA
Readout Name: kon (M⁻¹ s⁻¹)
Answers are plain numbers, in M⁻¹ s⁻¹.

Can you share its kon? I mean this binder: 31S34I54I59D84S / 54G101V (antibody, V domains shown, KCD119 TAF variant; full antibody captured on protein A; also called 31S34I54I59D845 / 54G101V; 3I534I54I59D84S / 54G101V) VH: EVQLVESGGGLVQPGGSLRLSCAASGYTFTSYYINWVRQAPGKGLEWIGDINPITGDTDYNADFKRRFTFSLDTSKSTAYLQMSSLRAEDTAVYYCTREGPSFAYWGQGTLVTVSS VL: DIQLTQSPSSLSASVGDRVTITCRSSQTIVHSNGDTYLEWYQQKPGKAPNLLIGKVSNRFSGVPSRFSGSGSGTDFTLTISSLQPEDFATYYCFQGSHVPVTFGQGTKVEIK
1.21e+07

Source listed as patent US20180334496A1.
